Molecular target: Recombinant full-length human IDO1 (Homo sapiens, UniProt P14902)
Construct: Recombinant full-length human IDO1 with a N-terminal hexahistidine tag; hexahistidine (His6) (N); made in house; host or cells: E. coli
Sequence (P14902 whole entry): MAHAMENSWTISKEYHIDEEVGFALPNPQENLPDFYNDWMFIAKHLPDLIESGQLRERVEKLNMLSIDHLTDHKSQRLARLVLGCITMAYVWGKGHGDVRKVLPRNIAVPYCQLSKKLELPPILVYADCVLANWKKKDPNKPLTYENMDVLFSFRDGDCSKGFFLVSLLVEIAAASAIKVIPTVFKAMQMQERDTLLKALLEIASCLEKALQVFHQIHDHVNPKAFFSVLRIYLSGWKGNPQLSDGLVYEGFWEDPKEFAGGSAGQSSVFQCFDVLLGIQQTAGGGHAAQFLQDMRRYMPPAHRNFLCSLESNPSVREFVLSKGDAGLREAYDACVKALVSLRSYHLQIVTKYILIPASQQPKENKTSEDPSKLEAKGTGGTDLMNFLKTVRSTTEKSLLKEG
Test: IDO1 enzymatic assay (NFK quantified by LCMS)
Assay type: biochemical
Details: 2 nM enzyme, 5 μM L-tryptophan, pH6.5, 30 minutes pre-incubation at RT; mean values when measured multiple times; read-out: hIDO activity (IC50 in nM)
Procedure: 1) Testing Compounds for IDO Inhibitory Activity in an IDO1 Enzymatic Assay: Recombinant full-length human IDO1 with a N-terminal hexahistidine tag expressed in E. coli and purified to homogeneity is incubated at a final concentration of 2 nM in assay buffer consisting of 37.5 mM phosphate buffer at pH6.5 supplemented with 10 mM ascorbic acid, 0.45 μM methylene blue, 50U/ml catalase, 0.01% BSA, and 0.01% Tween 20 (protocol modified from Seegers et al, JBS 2014). […]
In this section we review reported log10 of IC50 values for a set of compounds.
Note the log scale: values are log10 of IC50 expressed in nM.

Some solved cases for reference:
[[record]]
compound = "O[C@@H](c1cn(-c2ccc(OCC3CCOCC3)c(Cl)c2)nn1)c1c(C2CC2)sc2cncn12"
test_value = 0.67

[[record]]
compound = "CCc1sc2cncn2c1C(O)c1cn(-c2ccc(NC(=O)C(C)(C)C)cc2)nn1 (racemic)"
test_value = 1.04


Ask | Give me measured log10 of IC50, please, for this compound: Cc1sc2cncn2c1C(O)c1cn(-c2ccc(N3CCOCC3)cc2)nn1 (racemic)
Reply | 2.63

----------
In this section we review reported IC50 values for a set of compounds.
target: Recombinant human TDO comprising amino acids 19-407 (Homo sapiens); construct: Recombinant human TDO comprising amino acids 19-407 with a N-terminal hexahistidine tag; hexahistidine (His6) (N); made in house; host or cells: E. coli; test: TDO2 enzymatic assay (NFK quantified by LCMS); type: biochemical; conditions: 15 nM enzyme, 200 μM L-tryptophan, pH7, 30 minutes pre-incubation at RT; mean values when measured multiple times; read-out: hTDO activity (IC50 in nM)
Sequence (P48775 19-406 limits assumed): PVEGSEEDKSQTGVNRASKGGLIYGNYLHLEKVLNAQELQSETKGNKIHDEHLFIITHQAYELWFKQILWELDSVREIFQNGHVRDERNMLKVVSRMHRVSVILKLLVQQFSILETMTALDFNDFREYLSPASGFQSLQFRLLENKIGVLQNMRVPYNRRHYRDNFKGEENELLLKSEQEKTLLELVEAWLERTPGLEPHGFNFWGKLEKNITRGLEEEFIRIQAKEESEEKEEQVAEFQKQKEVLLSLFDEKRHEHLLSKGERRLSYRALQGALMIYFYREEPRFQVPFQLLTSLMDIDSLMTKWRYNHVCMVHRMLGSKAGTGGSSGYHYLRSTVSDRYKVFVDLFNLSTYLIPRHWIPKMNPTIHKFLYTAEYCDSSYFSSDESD

[[record]]
compound = "CNS(=O)(=O)c1ccc(-n2cc(C(O)c3c(C4CC4)sc4cncn34)nn2)cc1 (racemic)"
test_value = "> 10200 nM"

[[record]]
compound = "O[C@@H](c1cn(-c2ccc3[nH]ccc3c2)nn1)c1c(C2CC2)sc2cncn12 [Example 16a]"
test_value = "4570 nM"

[[record]]
compound = "Oc1ccc(-n2cc(C(O)c3c(C4CC4)sc4cncn34)nn2)cc1C(F)(F)F (racemic)"
test_value = "> 10200 nM"

[[record]]
compound = "OC(c1cn(-c2cccnc2)nn1)c1c(C2CC2)sc2cncn12 (racemic)"
test_value = "> 10200 nM"

[[record]]
compound = "COc1ccc(-n2cc(C(O)c3c(-c4ccc(F)cc4)sc4cncn34)nn2)cc1 (racemic)"
test_value = "> 10200 nM"

[[record]]
compound = "CC(C)(O)CCOc1ccc(-n2cc(C(O)c3c(C(C)(F)F)sc4cncn34)nn2)cc1Cl (racemic)"
test_value = "> 10200 nM"

[[record]]
compound = "COc1ccc(-n2cc(C(O)c3c(C4CC4)sc4cncn34)nn2)cc1F (racemic)"
test_value = "> 10200 nM"

[[record]]
compound = "CC(F)(F)c1sc2cncn2c1C(O)c1cn(-c2ccc(O)c(Cl)c2)nn1 (racemic)"
test_value = "9930 nM"

[[record]]
compound = "Cc1sc2cncn2c1C(O)c1cn(-c2ccc3[nH]ccc3c2)nn1 (racemic)"
test_value = "8400 nM"

[[record]]
compound = "COc1ccc(-n2cc(C(O)c3c(-c4cccc(F)c4)sc4cncn34)nn2)cc1 (racemic)"
test_value = "> 10200 nM"


Shifting focus to the compound that follows.
Ask | Give me measured IC50, please, for this compound: OCCCOc1ccc(-n2cc(C(O)c3c(-c4ccccc4)sc4cncn34)nn2)cc1Cl (racemic)
Reply | > 10200 nM

----------
In this section we review reported IC50 values for a set of compounds.
biological target: Recombinant full-length human IDO1 (Homo sapiens, UniProt P14902); construct: Recombinant full-length human IDO1 with a N-terminal hexahistidine tag; hexahistidine (His6) (N); made in house; host or cells: E. coli; test: IDO1 enzymatic assay (NFK quantified by LCMS); assay type: biochemical; conditions: 2 nM enzyme, 5 μM L-tryptophan, pH6.5, 30 minutes pre-incubation at RT; mean values when measured multiple times; read-out: hIDO activity (IC50 in nM)
Write the value in nM as a bare number.

Ask | Give measured IC50 for OC(c1nc(-c2ccccc2)no1)c1c(C2CC2)sc2cncn12 (racemic) (Recombinant full-length human IDO1 (Homo sapiens, UniProt P14902)).
Reply | 496

Ask | Give measured IC50 for Cc1sc2cncn2c1C(O)c1cn(-c2ccc3[nH]ccc3c2)nn1 (racemic) (Recombinant full-length human IDO1 (Homo sapiens, UniProt P14902)).
Reply | 50.4

Ask | Give measured IC50 for OC(c1cn(-c2cnc(OC3CCC3)nc2)nn1)c1c(C2CC2)sc2cncn12 (racemic) (Recombinant full-length human IDO1 (Homo sapiens, UniProt P14902)).
Reply | 10.9

----------
biological target: Recombinant full-length human IDO1 (Homo sapiens, UniProt P14902); construct: Recombinant full-length human IDO1 with a N-terminal hexahistidine tag; hexahistidine (His6) (N); made in house; host or cells: E. coli; assay: IDO1 enzymatic assay (NFK quantified by LCMS); assay type: biochemical; settings: 2 nM enzyme, 5 μM L-tryptophan, pH6.5, 30 minutes pre-incubation at RT; mean values when measured multiple times; read-out: hIDO activity (IC50 in nM)
ASSAY ENDPOINT: IC50 (nM)
Write the value in nM as a bare number.

Some solved cases for reference:
[[record]]
compound = "OCCCOc1ccc(-n2cc(C(O)c3c(C4CC4)sc4cncn34)nn2)cc1 (racemic)"
assay_endpoint = "IC50"
test_value = 11.1

[[record]]
compound = "CCNC(=O)Nc1ccc(-n2cc(C(O)c3c(C4CC4)sc4cncn34)nn2)cc1OC (racemic)"
assay_endpoint = "IC50"
test_value = 15.5

[[record]]
compound = "Oc1ccc(-n2cc(C(O)c3c(C4CC4)sc4cncn34)nn2)cc1OC(F)(F)F (racemic)"
assay_endpoint = "IC50"
test_value = 23.5

[[record]]
compound = "CCc1c(C(O)c2c(C3CC3)sc3cncn23)nnn1-c1ccc(OC)cc1 (racemic)"
assay_endpoint = "IC50"
test_value = 13.6

[[record]]
compound = "Cc1sc2cncn2c1C(O)c1ccc(-c2ccccc2)s1 (racemic)"
assay_endpoint = "IC50"
test_value = 366

[[record]]
compound = "COc1ccc(-n2cc(C(O)c3c(C4CC4)sc4cncn34)nn2)cc1F (racemic)"
assay_endpoint = "IC50"
test_value = 4.29


Ask | Give me measured IC50, please, for this compound: CCc1sc2cncn2c1C(O)c1cn(-c2ccc(C(=O)NCCN(C)C)cc2)nn1 (racemic)
Reply | 133

Ask | Give me measured IC50, please, for this compound: COC(=O)c1cccc(Cn2cc(C(O)c3c(C4CC4)sc4cncn34)nn2)c1 (racemic)
Reply | 35.8

Ask | Give me measured IC50, please, for this compound: Cc1sc2cncn2c1C(O)c1cnn(-c2ccccc2)c1 (racemic)
Reply | 163

Ask | Give me measured IC50, please, for this compound: OC(c1cn(-c2ccc(OCc3ccccn3)cc2)nn1)c1c(C2CC2)sc2cncn12 (racemic)
Reply | 1350

Ask | Give me measured IC50, please, for this compound: OC(c1cn(-c2ccnc3ccccc23)nn1)c1c(C2CC2)sc2cncn12 (racemic)
Reply | 18.3

Ask | Give me measured IC50, please, for this compound: COc1ccc(-n2cc(C(O)c3c(C4CC4)sc4cncn34)nn2)cc1 (racemic)
Reply | 8.62

Ask | Give me measured IC50, please, for this compound: CCc1sc2cncn2c1C(O)c1cn(-c2ccc(NC(=O)N3CCOCC3)cc2)nn1 (racemic)
Reply | 32

Ask | Give me measured IC50, please, for this compound: CCOc1ccc(-n2cc(C(O)c3c(CC)sc4cncn34)nn2)cn1 (racemic)
Reply | 14.3

Ask | Give me measured IC50, please, for this compound: OC(c1cnn(-c2ccccc2)c1)c1c(C2CC2)sc2cncn12 (racemic)
Reply | 41.8

Ask | Give me measured IC50, please, for this compound: OC(c1cn(-c2nccc(Br)c2Cl)nn1)c1c(C2CC2)sc2cncn12 (racemic)
Reply | 55.4

----------
target: Recombinant full-length human IDO1 (Homo sapiens); construct: Recombinant full-length human IDO1 with a N-terminal hexahistidine tag; hexahistidine (His6) (N); made in house; host or cells: E. coli; experiment: IDO1 enzymatic assay (NFK quantified by LCMS); type: biochemical; conditions: 2 nM enzyme, 5 μM L-tryptophan, pH6.5, 30 minutes pre-incubation at RT; mean values when measured multiple times; read-out: hIDO activity (IC50 in nM)
ASSAY ENDPOINT: IC50 (nM)
Write the value in nM as a bare number.

Some solved cases for reference:
[[record]]
compound = "Oc1ccc(-n2cc(C(O)c3c([C@@H]4C[C@H]4F)sc4cncn34)nn2)cc1Cl (relative stereo)"
tested_on = "Recombinant full-length human IDO1 (Homo sapiens)"
assay_endpoint = "IC50"
unit_tag = "nM"
test_value = 13.1

[[record]]
compound = "COCCCNC(=O)c1ccc(-n2cc(C(O)c3c(C4CC4)sc4cncn34)nn2)cc1 (racemic)"
tested_on = "Recombinant full-length human IDO1 (Homo sapiens)"
assay_endpoint = "IC50"
unit_tag = "nM"
test_value = 19.6

[[record]]
compound = "CC(C)C(=O)Nc1ccc(-n2cc([C@H](O)c3c(C4CC4)sc4cncn34)nn2)cc1 [Example 192a]"
tested_on = "Recombinant full-length human IDO1 (Homo sapiens)"
assay_endpoint = "IC50"
unit_tag = "nM"
test_value = 3.71


Shifting focus to the compound that follows.
Ask | Give me measured IC50, please, for this compound: O[C@@H](c1cnn(-c2ccccc2)c1)c1c(C2CC2)sc2cncn12 [Example 100a]
Reply | 17.5
